# assayed.target: G1 APOL1 (Homo sapiens, UniProt O14791, I384M/S342G)
# Construct: expressed in transfected cells
# Sequence (O14791 28-398 S342G/I384M): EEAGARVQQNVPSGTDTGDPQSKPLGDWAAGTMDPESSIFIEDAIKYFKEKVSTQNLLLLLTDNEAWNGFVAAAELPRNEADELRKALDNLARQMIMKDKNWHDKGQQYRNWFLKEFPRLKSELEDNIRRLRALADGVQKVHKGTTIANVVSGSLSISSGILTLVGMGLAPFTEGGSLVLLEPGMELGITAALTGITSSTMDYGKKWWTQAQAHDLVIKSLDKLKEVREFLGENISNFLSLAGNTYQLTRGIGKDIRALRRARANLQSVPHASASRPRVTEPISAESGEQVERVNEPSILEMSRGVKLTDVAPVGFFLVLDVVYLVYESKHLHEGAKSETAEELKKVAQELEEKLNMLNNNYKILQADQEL
# protocol.description: Acute APOL1 Thallium Assay with inducible stable clones of HEK 293 cells
# Format: cell-based
# condition.parameters: HEK 293 T-Rex inducible stable clone expressing G1 APOL1; read-out: Thallium Assay (IC50)
pIC50: −log10 of the molar value.
List of pIC50 values.
quantity.measured: pIC50

[
  {
    "molecule": "O=S(=O)(N[C@H]1C[C@H](c2c(-c3ccc(F)cc3)[nH]c3c(F)cc(F)cc32)C1)c1cn[nH]c1",
    "result": "6.00 to 6.60"
  },
  {
    "molecule": "NS(=O)(=O)CCCC(=O)NC[C@H]1C[C@@H](c2c(-c3ccc(F)cc3)[nH]c3c(F)cc(F)cc32)C1",
    "result": "< 6.00"
  },
  {
    "molecule": "CN1CC(NS(=O)(=O)NC[C@H]2C[C@H](c3c(-c4ccc(F)cc4)[nH]c4c(F)cc(F)cc43)C2)CC1=O (some centres unmarked)",
    "result": "< 6.00"
  },
  {
    "molecule": "O=C(CCN1CCCC1)NC[C@H]1C[C@@H](c2c(-c3ccc(F)cc3)[nH]c3c(F)cc(F)cc32)C1",
    "result": "< 6.00"
  },
  {
    "molecule": "O=C1NC(=O)C(CCS(=O)(=O)N[C@H]2C[C@H](c3c(-c4ccc(F)cc4)[nH]c4c(F)cc(F)cc43)C2)N1 (some centres unmarked)",
    "result": "6.00 to 6.60"
  },
  {
    "molecule": "N[C@H](C(=O)NC[C@H]1C[C@H](c2c(-c3ccc(F)cc3)[nH]c3c(F)cc(F)cc32)C1)C1CC1",
    "result": "> 6.60"
  },
  {
    "molecule": "O=c1ccc2cc(S(=O)(=O)N[C@H]3C[C@H](c4c(-c5ccc(F)cc5)[nH]c5c(F)cc(F)cc54)C3)ccc2[nH]1",
    "result": "< 6.00"
  },
  {
    "molecule": "O=C(CC1CCOCC1)N[C@H]1C[C@@H](c2c(-c3ccc(F)cc3)[nH]c3c(F)cc(F)cc32)C1",
    "result": "< 6.00"
  },
  {
    "molecule": "O=C(N[C@H]1C[C@@H](c2c(-c3ccc(F)cc3)[nH]c3c(F)cc(F)cc32)C1)C1COC1",
    "result": "6.00 to 6.60"
  },
  {
    "molecule": "CC(=O)Nc1ccn(C2CC(c3c(-c4ccc(F)cc4)[nH]c4c(F)cc(F)cc34)C2)n1 (centres unmarked)",
    "result": "< 6.00"
  },
  {
    "molecule": "CC(=O)N[C@@H](C)C(=O)NC[C@H]1C[C@H](c2c(-c3ccc(F)cc3)[nH]c3c(F)cc(F)cc32)C1",
    "result": "6.00 to 6.60"
  },
  {
    "molecule": "NC[C@H]1C[C@@H](c2c(-c3ccc(F)cc3)[nH]c3c(F)cc(F)cc32)C1",
    "result": "> 6.60"
  },
  {
    "molecule": "Cn1ccc(NCC2CC(c3c(-c4ccc(F)cc4)[nH]c4c(F)cc(F)cc34)C2)n1 (centres unmarked)",
    "result": "< 6.00"
  },
  {
    "molecule": "CC(C(=O)N[C@H]1C[C@H](c2c(-c3ccc(F)cc3)[nH]c3c(F)cc(F)cc32)C1)N(C)C (mixture of isomers)",
    "result": "< 6.00"
  }
]

* * *

# assayed.target: G1 APOL1 (Homo sapiens, UniProt O14791, I384M/S342G)
# Construct: expressed in transfected cells
# protocol.description: Acute APOL1 Thallium Assay with inducible stable clones of HEK 293 cells
# Format: cell-based
# condition.parameters: HEK 293 T-Rex inducible stable clone expressing G1 APOL1; read-out: Thallium Assay (IC50)
pIC50: −log10 of the molar value.
Listing: pIC50 of selected compounds

[
  {
    "compound": "N[C@H]1C[C@@H](Cc2c(-c3ccc(F)cc3)[nH]c3c(F)cc(F)cc23)C1",
    "pIC50": "> 6.60"
  },
  {
    "compound": "CC(C)C(O)C(=O)N[C@H]1C[C@H](c2c(-c3ccc(F)cc3)[nH]c3c(F)cc(F)cc32)C1 (stereo partly shown)",
    "pIC50": "6.00 to 6.60"
  },
  {
    "compound": "OCC1CC(c2c(-c3ccc(F)cc3)[nH]c3c(F)cc(F)cc23)C1 (stereo not shown)",
    "pIC50": "> 6.60"
  },
  {
    "compound": "NCC1CC(c2c(-c3ccc(C4CC4)cc3)[nH]c3ccc(F)cc23)C1 (stereo not shown)",
    "pIC50": "< 6.00"
  },
  {
    "compound": "C[C@H](O)[C@H](CO)NCC1CC(c2c(-c3ccc(F)cc3)[nH]c3c(F)cc(F)cc23)C1 (stereo partly shown)",
    "pIC50": "< 6.00"
  },
  {
    "compound": "NCCNCC1CC(c2c(-c3ccc(F)cc3)[nH]c3c(F)cc(F)cc23)C1 (stereo not shown)",
    "pIC50": "6.00 to 6.60"
  },
  {
    "compound": "CC1(C(=O)N[C@H]2C[C@@H](c3c(-c4ccc(F)cc4)[nH]c4c(F)cc(F)cc43)C2)CCC(=O)NC1 (mixture of isomers)",
    "pIC50": "< 6.00"
  },
  {
    "compound": "O=C(NC[C@H]1C[C@H](c2c(-c3ccc(F)cc3)[nH]c3c(F)cc(F)cc32)C1)[C@@H]1CCCN1",
    "pIC50": "> 6.60"
  },
  {
    "compound": "O=C(NC[C@H]1C[C@H](c2c(-c3ccc(F)cc3)[nH]c3c(F)cc(F)cc32)C1)[C@H]1NCC[C@H]1O",
    "pIC50": "< 6.00"
  },
  {
    "compound": "CC(NC(=O)O[C@H]1C[C@H](c2c(-c3ccc(F)cc3)[nH]c3c(F)cc(F)cc32)C1)C(N)=O (mixture of isomers)",
    "pIC50": "< 6.00"
  },
  {
    "compound": "C[C@@H](CO)NS(=O)(=O)NC[C@H]1C[C@H](c2c(-c3ccc(F)cc3)[nH]c3c(F)cc(F)cc32)C1",
    "pIC50": "6.00 to 6.60"
  },
  {
    "compound": "CC(C)(C)OC(=O)N[C@@H](C(=O)NC[C@H]1C[C@H](c2c(-c3ccc(F)cc3)[nH]c3c(F)cc(F)cc32)C1)C1CC1",
    "pIC50": "< 6.00"
  },
  {
    "compound": "CC(C)(O)C(=O)N[C@H]1C[C@@H](c2c(-c3ccc(F)cc3)[nH]c3c(F)cc(F)cc32)C1",
    "pIC50": "6.00 to 6.60"
  },
  {
    "compound": "CN1CCC(CC(=O)N[C@H]2C[C@H](c3c(-c4ccc(F)cc4)[nH]c4c(F)cc(F)cc43)C2)C1 (stereo partly shown)",
    "pIC50": "< 6.00"
  },
  {
    "compound": "CC(C)(O)C(=O)NC1CC(c2c(-c3ccc(F)cc3)[nH]c3c(F)cc(C(F)(F)F)cc23)C1 (mixture of isomers)",
    "pIC50": "6.00 to 6.60"
  },
  {
    "compound": "CCC(C)S(=O)(=O)N[C@H]1C[C@H](c2c(-c3ccc(F)cc3)[nH]c3c(F)cc(F)cc32)C1 (stereo partly shown)",
    "pIC50": "< 6.00"
  },
  {
    "compound": "O=C(CC1COC1)N[C@H]1C[C@H](c2c(-c3ccc(F)cc3)[nH]c3c(F)cc(F)cc32)C1",
    "pIC50": "< 6.00"
  },
  {
    "compound": "O=C(NC[C@H]1C[C@H](c2c(-c3ccc(F)cc3)[nH]c3c(F)cc(F)cc32)C1)[C@@H]1C[C@@H](O)CN1",
    "pIC50": "6.00 to 6.60"
  },
  {
    "compound": "CC[C@H](N)C(=O)NC[C@H]1C[C@H](c2c(-c3ccc(F)cc3)[nH]c3c(F)cc(F)cc32)C1",
    "pIC50": "> 6.60"
  },
  {
    "compound": "CS(=O)(=O)NCC(=O)NC[C@H]1C[C@@H](c2c(-c3ccc(F)cc3)[nH]c3c(F)cc(F)cc32)C1",
    "pIC50": "< 6.00"
  },
  {
    "compound": "OCCNC1CC(c2c(-c3ccc(F)cc3)[nH]c3c(F)cc(F)cc23)C1 (stereo not shown)",
    "pIC50": "6.00 to 6.60"
  },
  {
    "compound": "O=C(NC[C@H]1C[C@@H](c2c(-c3ccc(F)cc3)[nH]c3c(F)cc(F)cc32)C1)c1nc[nH]n1",
    "pIC50": "< 6.00"
  },
  {
    "compound": "CC(=O)NC[C@H]1C[C@H](c2c(-c3ccc(F)cc3)[nH]c3c(F)cc(F)cc32)C1",
    "pIC50": "> 6.60"
  },
  {
    "compound": "CN(CC(=O)N[C@H]1C[C@H](c2c(-c3ccc(F)cc3)[nH]c3c(F)cc(F)cc32)C1)S(C)(=O)=O",
    "pIC50": "< 6.00"
  },
  {
    "compound": "O=C(NC[C@H]1C[C@H](c2c(-c3ccc(F)cc3)[nH]c3c(F)cc(F)cc32)C1)[C@@H]1C[C@@H](F)CN1",
    "pIC50": "> 6.60"
  },
  {
    "compound": "CN(C)CCC(=O)N[C@H]1C[C@@H](c2c(-c3ccc(F)cc3)[nH]c3c(F)cc(F)cc32)C1",
    "pIC50": "< 6.00"
  },
  {
    "compound": "CN(C)C(=O)CCC(=O)N[C@H]1C[C@H](c2c(-c3ccc(F)cc3)[nH]c3c(F)cc(F)cc32)C1",
    "pIC50": "6.00 to 6.60"
  },
  {
    "compound": "O=S(=O)(NC[C@H]1C[C@H](c2c(-c3ccc(F)cc3)[nH]c3c(F)cc(F)cc32)C1)N[C@@H]1CCC[C@H]1O",
    "pIC50": "< 6.00"
  }
]
